The reader will find reported 3' UTR reporter interaction score values listed item by item below.
Tested on: EZH2
measurement-protocol: 3' UTR reporter interaction score (median-centred robust z-score of log2 firefly/Renilla activity); higher = less repression of the 3' UTR reporter
reported-conditions: HEK293T; 48 h
observed-property: 3' UTR reporter interaction score

- residue-string: "GUGCCUACUGAGCUGAUAUCAGU"
  measured-number: 0.242
- residue-string: "UCAGUCUCAUCUGCAAAGAAG"
  measured-number: 1.71
- residue-string: "AGCUCGGUCUGAGGCCCCUCAG"
  measured-number: -0.671
- residue-string: "UCUACAGUGCACGUGUCU"
  measured-number: -0.132
- residue-string: "AACAUUCAUUGUUGUCGGUGGGUU"
  measured-number: -0.453
- residue-string: "UAUGGCUUUUCAUUCCUAUGUG"
  measured-number: 0.203
- residue-string: "GAAGGCGCUUCCCUUUAGAGC"
  measured-number: -1.42
- residue-string: "UAAUACUGCCGGGUAAUGAUGG"
  measured-number: 0.453
- residue-string: "UAAUACUGUCUGGUAAAACCGU"
  measured-number: 0.716
- residue-string: "UGGUUGACCAUAGAACAUGCGC"
  measured-number: -1.23
- residue-string: "ACUUGGGCACUGAAACAAUGUCC"
  measured-number: -1.19
- residue-string: "CUGACCUAUGAAUUGACAGCC"
  measured-number: -0.124
- residue-string: "AGGAAGCCCUGGAGGGGCUGGAGGU"
  measured-number: -0.359
- residue-string: "UAAAGCUAGAUAACCGAAAGU"
  measured-number: 0.346
- residue-string: "UGGAAUGUAAGGAAGUGUGUGG"
  measured-number: 0.341
- residue-string: "CUGCAAAGGGAAGCCCUUUCU"
  measured-number: -3.8
- residue-string: "AGCUGUCUGAAAAUGUCUU"
  measured-number: -0.132
- residue-string: "UAGCACCAUCUGAAAUCGGUU"
  measured-number: 0.717
- residue-string: "AAAGCGCUUCUCUUUAGAGGA"
  measured-number: -0.591

###

Tested on: MYT1L
measurement-protocol: 3' UTR reporter interaction score (median-centred robust z-score of log2 firefly/Renilla activity); higher = less repression of the 3' UTR reporter
reported-conditions: HEK293T; 48 h
Entry flag: true if 3' UTR reporter interaction score reaches 0.08; false if it does not.

- residue-string: "UAUUGCACUUGUCCCGGCCUG"
  group-label: "false"
- residue-string: "UCUUGUGUUCUCUAGAUCAGU"
  group-label: "false"
- residue-string: "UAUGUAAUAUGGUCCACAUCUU"
  group-label: "true"
- residue-string: "UAUUGCUUAAGAAUACGCGUAG"
  group-label: "true"
- residue-string: "CUACAAAGGGAAGCACUUUCUC"
  group-label: "true"
- residue-string: "UGUAAACAUCCUACACUCAGCU"
  group-label: "true"
- residue-string: "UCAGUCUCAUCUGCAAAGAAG"
  group-label: "false"
- residue-string: "AAAGCGCUUCCCUUCAGAGUGU"
  group-label: "false"
- residue-string: "UAAAGUAAAUAUGCACCAAAA"
  group-label: "false"
- residue-string: "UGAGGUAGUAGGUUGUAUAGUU"
  group-label: "false"
- residue-string: "ACUAGACUGAAGCUCCUUGAGG"
  group-label: "true"
- residue-string: "AGCAGCAUUGUACAGGGCUAUCA"
  group-label: "false"
- residue-string: "UGUGCUUGCUCGUCCCGCCCGCAG"
  group-label: "true"
- residue-string: "AUAAGACGAGCAAAAAGCUUGU"
  group-label: "true"
- residue-string: "UUUAGGAUAAGCUUGACUUUUG"
  group-label: "true"
- residue-string: "UUCAAGUAAUCCAGGAUAGGC"
  group-label: "true"
- residue-string: "CCACACCGUAUCUGACACUUU"
  group-label: "true"
- residue-string: "GUGUCUGCUUCCUGUGGGA"
  group-label: "true"
